Entry source: PubChem BioAssay (NCI)

System: BT-549 breast
Test: NCI-60 one-dose screen, 48 h
Conditions: 10 µM unless noted
The panel holds about 83,000 compounds, 20% with a hit somewhere; the sample as a whole holds those more often. The source made the active and inactive calls. How the source made its calls: active means growth percent below 10; inactive means the rest.
Classes used: 1 for active, 0 for inactive

> print(dat)
                            substance.smiles  group
 1  CN(CCC#N)c1ccc(/C=C(\C#N)c2cccc(C(F)(F)F)c2)cc1      0
 2  CC(C)(C)OC(=O)N1C/C(=C\c2ccccc2)C(=O)/C(=C/c2ccccc2)C1      0
 3    N=C(N)c1ccc(-c2ccc(-c3ccc(Cl)cc3)s2)s1      0
 4  CCCC(CCC)Oc1ccc(CCCC2=C(O)c3ccccc3C(=O)C2=O)cc1      0
 5  O=C(Nc1cccc(Cn2c(=O)[nH]c3ccc(Oc4ncccn4)cc3c2=O)c1)c1cc(Cl)cc(Cl)c1      1
 6              Br/C(=N\Nc1nn[nH]n1)c1ccccc1      0
 7                        O=C(O)c1ccc(Br)nc1      0
 8       CCCCCCCCCCCCOC(=O)/C=C\C(=O)NC(N)=O      0
 9                           CC1C(=O)CCCC1=O      0
10  CNCCCNCCCCNCCCN1C(=O)c2ccc3c4c(ccc(c24)C1=O)C(=O)N(CCCNCc1ccccc1OC)C3=O      0
11  COC(=O)c1ccc2[nH]c(O)c(C(=Nc3ccc(N(C)C(=O)CN4CCN(C)CC4)cc3)c3ccc(C)cc3)c2c1      1

* * *

Tested on: UO-31 renal
Test: NCI-60 one-dose screen, 48 h (100 = growth as untreated, 0 = no growth, -100 = all killed)
Settings: 10 µM unless noted
This is part of a sample that, as a whole, favours compounds with a hit. Of some 83,000 tested, about 20% had one in any assay.
Rule: measured growth below 50% gets condition met; anything equal to or greater than 50% gets condition not met.

Molecule	Assay Target	Group
CCOc1ccccc1/C=N\N=C(N/N=C/c1ccccc1OCC)N/N=C/c1ccccc1OCC	UO-31 renal	condition met
CCCCCCCCCCCCCCCCNC(=S)N/N=C/c1ccc(OC)cc1	UO-31 renal	condition not met
O=C1CCNC1	UO-31 renal	condition not met
CC(=O)OCC1O[C@@H](OC(C)=O)[C@@H](NC(=O)NS(=O)(=O)c2ccccc2)C(OC(C)=O)[C@@H]1OC(C)=O (stereo not given in full)	UO-31 renal	condition not met
COc1ccc(-c2cn3ccnc3c(-c3ccc4ncn(C5CCCCC5)c4c3)n2)cc1	UO-31 renal	condition met
O=C(O)c1ccc(Br)nc1	UO-31 renal	condition not met
CCCCCCNc1nc(N2CCOCC2)c2[nH]c(NCCCCCC)nc2n1	UO-31 renal	condition met
O=C(/C=C/c1cccc(O)c1)c1cccc(-n2cc(-c3ccc(Cl)cc3)[nH]c2=O)c1	UO-31 renal	condition met
CCCCCCCCCCCCCCCCCC(=O)Nc1ccc(O)cc1	UO-31 renal	condition not met
O=C(/C=C/c1c[nH]c2ccccc12)c1cc2ccccc2o1	UO-31 renal	condition not met
CCC(C)C1NC(=O)C(CCCCN)NC(=O)C(CCCCN)NC(=O)C(CC(C)C)NC(=O)C(CCCCN)NC(=O)C(C(C)CC)NC(=O)C(C(C)C)NC(=O)C(C(C)CC)NC(=O)C(CCCCN)NC(=O)C(CCCCN)NC(=O)C(C)NC(=O)C(CCCCN)NC(=O)C(CC(C)C)NC1=O (stereo not given)	UO-31 renal	condition met
Cn1c2ccccc2c2ccccc21	UO-31 renal	condition not met
COC(=O)c1cc(Nc2ccc(O)c3c2C(=O)c2c([N+](=O)[O-])ccc(O)c2C3=O)cc(C(=O)OC)c1	UO-31 renal	condition not met
Ic1ccc(SSc2ccc(I)cc2)cc1	UO-31 renal	condition not met
COc1cc(-c2nc(/C=C3/C(=O)Nc4ccccc43)c3ccccn23)cc(OC)c1OC	UO-31 renal	condition met
O=C(Nc1cccc(Cn2c(=O)[nH]c3ccc(Oc4ncccn4)cc3c2=O)c1)c1cc(Cl)cc(Cl)c1	UO-31 renal	condition not met
COc1ccc(/C=C2\SC(=O)N(Cc3cc(=O)oc4ccc(OC)cc34)C2=O)cc1	UO-31 renal	condition not met
c1cc[c]([Bi]([c]2ccccc2)[c]2ccccc2)cc1	UO-31 renal	condition not met
CC1Cc2cc(F)ccc2-n2cccc21 (stereo not given)	UO-31 renal	condition not met
Nc1nc2c(c3cnccc13)C(c1cccc(Br)c1)Cc1cnccc1-2 (stereo not given)	UO-31 renal	condition met
